assay_method_text: Selectivity index, ratio of TC50 against African green monkey Vero cells infected with Herpes simplex virus 1 after 72 hrs by MTT assay to IC50 against Herpes simplex virus 1 infected in African green monkey Vero cells assessed as inhibition of virus-induced cytopathogenic effect by microscopic analysis
Format: toxicity
condition_label: read-out: Selectivity Index
# selectivity ratio at 72 h values compiled below

{"mol_smiles": "CC(C)(C)c1ccc(CNc2ncnc(Cl)c2/C=N/O)cc1", "selectivity ratio at 72 h": 5.2}
{"mol_smiles": "COc1ccccc1CNc1ncnc(Cl)c1/C=N/O", "selectivity ratio at 72 h": 21.5}
{"mol_smiles": "COc1ccc(CNc2ncnc(Cl)c2/C=N/O)cc1", "selectivity ratio at 72 h": 7.06}
{"mol_smiles": "COc1cccc(CNc2ncnc(Cl)c2/C=N/O)c1", "selectivity ratio at 72 h": 4.81}
{"mol_smiles": "COc1nc(N)nc2[nH]c(=O)nc(N)c12", "selectivity ratio at 72 h": 6.6}
{"mol_smiles": "C[C@H]1O[C@@H](n2c(=O)nc(N)c3c(=O)[nH]c(N)nc32)[C@H](O)[C@@H]1O", "selectivity ratio at 72 h": 4.1}
{"mol_smiles": "COc1ccccc1Nc1ncnc(Cl)c1/C=N/O", "selectivity ratio at 72 h": 6.22}
{"mol_smiles": "CC(C)(C)c1ccc(CNc2ncnc(Cl)c2/C=N\\O)cc1", "selectivity ratio at 72 h": 2.97}
{"mol_smiles": "Nc1ncn([C@@H]2O[C@H](CO)C[C@H]2O)c2nc(=O)[nH]c(=O)c1-2", "selectivity ratio at 72 h": 4.6}
{"mol_smiles": "O/N=C/c1c(Cl)ncnc1NCc1ccc(Br)cc1", "selectivity ratio at 72 h": 15.7}
{"mol_smiles": "CO/N=C\\c1c(Cl)ncnc1NCc1ccccc1OC", "selectivity ratio at 72 h": 5.58}

====

assay_method_text: Selectivity index, ratio of TC50 against African green monkey Vero cells infected with Coxsackievirus B3 after 72 hrs by MTT assay to IC50 against Coxsackievirus B3 infected in African green monkey Vero cells assessed as inhibition of virus-induced cytopathogenic effect by microscopic analysis
Assay type: toxicity
condition_label: read-out: Selectivity Index
# selectivity ratio at 72 h values compiled below

{"mol_smiles": "COc1ccccc1CNc1ncnc(Cl)c1/C=N/O", "selectivity ratio at 72 h": 17.2}
{"mol_smiles": "CC(C)(C)c1ccc(CNc2ncnc(Cl)c2/C=N/O)cc1", "selectivity ratio at 72 h": 4.92}

====

# CC50 at 72 h values compiled below
assay_method_text: Cytotoxicity against African green monkey Vero cells infected with Herpes simplex virus 2 after 72 hrs by MTT assay
Format: cell-based
condition_label: chlorocebus sabaeus, read-out: TC50
endpoint_label: CC50 at 72 h (µg/mL)

{"mol_smiles": "CC(C)(C)c1ccc(CNc2ncnc(Cl)c2/C=N/O)cc1", "endpoint_label": "CC50 at 72 h", "value_observed": 0.53}
{"mol_smiles": "COc1ccccc1CNc1ncnc(Cl)c1/C=N/O", "endpoint_label": "CC50 at 72 h", "value_observed": 1.11}

====

assay_method_text: Selectivity index, ratio of TC50 against African green monkey Vero cells infected with Herpes simplex virus 2 after 72 hrs by MTT assay to IC50 against Herpes simplex virus 2 infected in African green monkey Vero cells assessed as inhibition of virus-induced cytopathogenic effect by microscopic analysis
Type: toxicity
condition_label: read-out: Selectivity Index
# selectivity ratio at 72 h values compiled below

{"mol_smiles": "CC(C)(C)c1ccc(CNc2ncnc(Cl)c2/C=N/O)cc1", "selectivity ratio at 72 h": 13.2}
{"mol_smiles": "COc1ccccc1CNc1ncnc(Cl)c1/C=N/O", "selectivity ratio at 72 h": 3.83}
